Molecular target: T1, human CEA on cells (MKN45, LOVO, NCI-H2122, LS174T, CT26/CEA) (human, UniProt P06731 35-685)
T1 sequence: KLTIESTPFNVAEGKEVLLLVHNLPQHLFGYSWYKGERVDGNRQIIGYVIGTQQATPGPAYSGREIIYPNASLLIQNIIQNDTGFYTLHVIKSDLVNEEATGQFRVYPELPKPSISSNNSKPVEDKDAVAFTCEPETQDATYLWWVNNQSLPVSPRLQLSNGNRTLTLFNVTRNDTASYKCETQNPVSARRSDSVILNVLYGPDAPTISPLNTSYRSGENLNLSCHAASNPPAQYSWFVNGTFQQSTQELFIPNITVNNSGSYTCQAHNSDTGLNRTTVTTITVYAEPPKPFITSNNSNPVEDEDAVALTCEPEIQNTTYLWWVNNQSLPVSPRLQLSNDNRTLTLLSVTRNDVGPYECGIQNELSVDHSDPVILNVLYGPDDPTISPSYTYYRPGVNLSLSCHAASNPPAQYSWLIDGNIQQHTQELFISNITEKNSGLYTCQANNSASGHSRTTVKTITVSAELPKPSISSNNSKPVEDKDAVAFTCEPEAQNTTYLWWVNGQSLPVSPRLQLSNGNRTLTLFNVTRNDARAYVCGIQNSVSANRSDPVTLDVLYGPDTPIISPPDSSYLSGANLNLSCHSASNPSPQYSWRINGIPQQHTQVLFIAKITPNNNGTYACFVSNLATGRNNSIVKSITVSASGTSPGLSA
Assay: cell-based or functional assay
VALUE KIND: EC50, cell killing of NCI-H2122 cells (nM)
Numbers only, in nM.

Measured EC50, cell killing of NCI-H2122 cells of BGA9962 (antibody, human IgG1, kappa, V domains shown, linker-payload conjugated after reduction of the antibody, DAR 8 (structure only as a drawing in Table 18)) VH: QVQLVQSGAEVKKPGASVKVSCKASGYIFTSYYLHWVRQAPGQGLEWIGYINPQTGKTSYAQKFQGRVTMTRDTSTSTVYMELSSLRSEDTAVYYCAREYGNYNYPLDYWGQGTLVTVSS VL: DIQMTQSPSSLSASVGDRVTITCRASENQYGYLAWYQQKPGKVPKLLIYNYKNLVEGVPSRFSGSGSGTDFTLTISSLQPEDVATYYCQHHLGTPYTFGQGTKVEIKR : 0.17
